Reported combination Emax values follow for various compounds
# Tested on: MN-60 (B-Lymphoblastic Leukemia)
# protocol_summary: combination Emax (second highest fraction inhibited in the dose matrix, 72 h); higher = more inhibition; extreme values may be limits of the assay

compound	tested_system	combination Emax
C=CCn1c(=O)c2cnc(Nc3ccc(N4CCN(C)CC4)cc3)nc2n1-c1cccc(C(C)(C)O)n1 [AZD1775] + C[C@@H]1COCCN1C2=NC(=NC(=C2)C3(CC3)[S@](=N)(=O)C)C4=C5C=CNC5=NC=C4 [AZD6738] (first compound max 1 µM, partner max 10 µM)	MN-60 (B-Lymphoblastic Leukemia)	0.64
C[C@@H](Oc1cc(-c2cnn(C3CCNCC3)c2)cnc1N)c1c(Cl)ccc(F)c1Cl [Crizotinib] + CC1=C(C(=CC=C1)Cl)NC(=O)C2=CN=C(S2)NC3=CC(=NC(=N3)C)N4CCN(CC4)CCO [Dasatinib] (first compound max 10 µM, 7x7, partner max 2 µM)	MN-60 (B-Lymphoblastic Leukemia)	0.494
